Reference source: patent US9814696B2

- studySystem: KLK14 (Homo sapiens, UniProt Q9P0G3)
- Sequence (Q9P0G3 41-267): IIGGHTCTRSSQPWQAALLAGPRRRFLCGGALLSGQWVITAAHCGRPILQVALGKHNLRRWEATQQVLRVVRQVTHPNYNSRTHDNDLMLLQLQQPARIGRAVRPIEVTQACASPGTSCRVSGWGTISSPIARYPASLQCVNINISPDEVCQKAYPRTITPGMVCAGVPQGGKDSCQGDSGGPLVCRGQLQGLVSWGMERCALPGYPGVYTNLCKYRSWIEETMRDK
- protocol: KLK14 enzyme inhibition assay, fluorogenic substrate Boc-Val-Pro-Arg-AMC
- Format: biochemical
- runParameters: Table A; 37° C., 15 min of incubation, pH 8; read-out: IC50 (μM) KLK14
Kindly supply the reported IC50 values for the records listed here.
Answers are plain numbers, in µM.

Study these solved cases before continuing.
smiles | IC50 (µM)
O=C(O)c1ccc(Cl)cc1OC(=O)c1cc2cc(CCl)ccc2oc1=O | 89
O=C(O)c1ccccc1OC(=O)c1cc2cc(CCl)ccc2oc1=O | 43
Cc1ccc2oc(=O)c(C(=O)Oc3cc(F)ccc3[N+](=O)[O-])cc2c1 | 68
CC(=O)OCc1ccc2oc(=O)c(C(=O)Oc3cccc(Cl)c3)cc2c1 | 31

Recorded result, "COC(=O)c1cc2cc(CCl)ccc2oc1=O" , IC50: 73

----------
- studySystem: KLK7 (Homo sapiens)
- Sequence (P49862 30-253): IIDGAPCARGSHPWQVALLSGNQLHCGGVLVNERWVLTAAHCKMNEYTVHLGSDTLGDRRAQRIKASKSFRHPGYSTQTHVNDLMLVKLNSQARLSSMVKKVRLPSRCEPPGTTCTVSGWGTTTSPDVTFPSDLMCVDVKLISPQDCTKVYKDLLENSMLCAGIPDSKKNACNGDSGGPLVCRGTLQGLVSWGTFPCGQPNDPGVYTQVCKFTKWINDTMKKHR
- protocol: KLK7 enzyme inhibition assay, fluorogenic substrate Suc-Leu-Leu-Val-Tyr-AMC
- Format: biochemical
- runParameters: Table A; 37° C., 15 min of incubation, pH 8; read-out: IC50 (μM) KLK7
recordedMetric: IC50 (µM)
Give bare numbers, in µM.

Study these solved cases before continuing.
compound | recordedMetric | quantityUnit | observedMeasurement
O=C(Oc1cncc(Cl)c1)c1cc2cc(CCl)ccc2oc1=O [LP2] | IC50 | µM | 0.128
O=C(Oc1cccc(I)c1)c1cc2cc(CCl)ccc2oc1=O [LP14] | IC50 | µM | 0.077
O=C(Oc1ccccc1)c1cc2cc(CCl)ccc2oc1=O [MFS7] | IC50 | µM | 0.235
COC(=O)c1ccccc1OC(=O)c1cc2cc(CCl)ccc2oc1=O [IK1] | IC50 | µM | 2.7
O=C(Oc1ccccc1I)c1cc2cc(CCl)ccc2oc1=O [LP15] | IC50 | µM | 1.9
COC(=O)c1ccccc1OC(=O)c1cc2cc(COC(C)=O)ccc2oc1=O [IK8] | IC50 | µM | 64.3
O=C(Oc1c(Cl)cccc1Cl)c1cc2cc(CCl)ccc2oc1=O [LP72] | IC50 | µM | 0.495
O=C(Oc1ccccc1[N+](=O)[O-])c1cc2cc(CCl)ccc2oc1=O [LP60] | IC50 | µM | 1.44

Hey, quick one: what's IC50 for each of these?
1. O=C(Sc1ccccc1)c1cc2cc(CCl)ccc2oc1=O [LP41]
2. O=C(Oc1cccc(Cl)c1Cl)c1cc2cc(CCl)ccc2oc1=O [LP73]
3. O=C(Oc1ccccc1)c1cc2cc(CO)ccc2oc1=O [MH30]
4. O=C(O)c1ccc(Cl)cc1OC(=O)c1cc2cc(CCl)ccc2oc1=O [IK5]

A)
0.39
0.063
33.2
5.8

Hey, quick one: what's IC50 for each of these?
1. CC(=O)OCc1ccc2oc(=O)c(C(=O)Oc3cc(Cl)ccc3Cl)cc2c1 [CFL4]
2. O=C(Oc1cc(Cl)cc(Cl)c1)c1cc2cc(CCl)ccc2oc1=O [LP75]
3. NC(=O)c1cccc(OC(=O)c2cc3cc(CCl)ccc3oc2=O)c1 [IK4]
4. O=C(Oc1cccc(Br)c1)c1cc2cc(CCl)ccc2oc1=O [LP53]

A)
1: 5.01; 2: 0.136; 3: 7.8; 4: 0.065

Hey, quick one: what's IC50 for each of these?
1. COC(=O)c1cccc(OC(=O)c2cc3cc(CCl)ccc3oc2=O)c1 [IK2]
2. O=C(Oc1cccc(Cl)c1)c1cc2cc(CCl)ccc2oc1=O [LP8]
3. O=C(Oc1cc(F)ccc1[N+](=O)[O-])c1cc2cc(CCl)ccc2oc1=O [CFL16]
4. COc1cc(Cl)cc(OC(=O)c2cc3cc(CCl)ccc3oc2=O)c1 [LP61]
5. CC(=O)OCc1ccc2oc(=O)c(C(=O)Oc3ccccc3I)cc2c1 [SMB28]

A)
1. 0.68
2. 0.103
3. 0.9
4. 0.13
5. 82.2
